Biological target: T1, EGFR (UniProt P00533 25-1210, limits assumed)
T1 construct: whole, on cells; also called EGFR positive cells; EGFR positive H292 cells
Assay: binding to EGFR positive cells (data not shown)
Measured metric: binding result

>>> measured_value("CD19 ECD N term mutant#1-EGFR Fn3 (designed binder, also called construct #227; CD19-Fn3/EGFR) PEEPLVVKVEEGDDAWLRCLKGTSDGPTSQVTWSRESPLKPFLKYSLGVPGLGVHIRPLAIGLVIPNVSQQMGGFYLCQPGPPSEKAWQPGWTVNVEGSGELFRWNVSDLGGLGCGLKNRSSEGPSSPSGKLMSPKLYVWAKDRPEIWEGEPPCLPPRDSLNQSLSQDLTMAPGSTLWLSCGVPPDSVSRGPLSWTHVHPKGPKSLLSLELKDDRPAREMIVDETGLLLPRATAQDAGKYYCHRGNRTISYHLEITARPVSAHTPLRTGGWKGGGGSGGGGSGGGGSGGGGSVSDVPRDLEVVAATPTSLLISWFDYAVTYYRITYGETGGNSPVQEFTVPGWISTATISGLKPGVDYTITVYAVTDNSHWPFRSTPISTNYRTEIDKPPQHHHHHH")
"binds"

Where do these numbers come from? They come from patent US20210079060A1.
